Test system: 253994-281-T-J1-PDC KRAS-mutant spheroids with HUVEC/MSC, viability;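 note: spheroids exposed to agents for seven days before readout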
protocol.text: Anticancer human tumor 253994-281-T-J1-PDC patient-derived colorectal carcinoma cell line growth inhibition [KRAS2]
protocol.conditions: curve of first compound; second compound 1 µM
Record form. Attribute: IC50. Fill in for each entry.
Give bare numbers, in nM.

CC(=O)OC12COC1CC(O)C1(C)C(=O)C(O)C3=C(C)C(OC(=O)C(O)C(NC(=O)OC(C)(C)C)c4ccccc4)CC(O)(C(OC(=O)c4ccccc4)C21)C3(C)C (stereo not drawn) + CC1OCC2(CCN(c3cnc(Sc4ccnc(N)c4Cl)c(N)n3)CC2)C1N
27.1

Enquiry: Query IC50 on 253994-281-T-J1-PDC KRAS-mutant spheroids with HUVEC/MSC, viability for CC1COCCN1c1cc(-c2ccnn2C)c2ccnc(-c3ccn[nH]3)c2n1 (stereo not drawn) + CC1OCC2(CCN(c3cnc(Sc4ccnc(N)c4Cl)c(N)n3)CC2)C1N
Return: 116

The values you see were collected from PubChem BioAssay AID1963874.
